Readings of koff for the listed binders
target-under-test: T1, pig serum albumin (pig, UniProt P08835 25-607)
T1 construct: Bought protein, immobilized on a CM5 chip by amine coupling; also called Pig SA
test-method-notes: SPR (Biacore 8K), albumin immobilized on CM5 chip, 25 C, 1:1 kinetic fit
Protocol: The immobilization of the serum albumin to a Series S Sensor Chip CM5 surface is performed according to the manufacturer's instructions (Amine Coupling Kit BR-1000-50). Briefly, carboxyl groups on the sensor chip surfaces (flow cell 1 and 2) are activated by injecting 70 μL of a mixture containing 75 mg/mL EDC and 11.5 mg/mL NHS at 10 μL/min. […]
Please format your answer as a value with the unit trailing.

{"binder": "RLN Analog 12 (other, Single-chain fusion: VHH - (G4Q)5 L1 - RLN2 B chain (desB1) - L2 of thirteen residues - RLN2 A chain (desA1-4)) EVQLLESGGGLVQPGGSLRLSCAASGRYIDETAVAWFRQAPGKGREFVAGIGGGVDITYYADSVKGRFTISRDNSKNTLYLQMNSLRPEDTAVYYCAARPGRPLITSKVADLYPYWGQGTLVTVSSGGGGQGGGGQGGGGQGGGGQGGGGQSWMEEVIKLCGRELVRAQIAICGMSTWSGGGSGGSGGSGGGALANKCCHVGCTKRSLARFC", "parameter-measured": "koff", "reading": "0.0058 s⁻¹"}
{"binder": "RLN Analog 6 (other, Single-chain fusion: RLN2 B chain (desB1) - L2 - RLN2 A chain - PGPQ-repeat L1 - VHH (C-terminal)) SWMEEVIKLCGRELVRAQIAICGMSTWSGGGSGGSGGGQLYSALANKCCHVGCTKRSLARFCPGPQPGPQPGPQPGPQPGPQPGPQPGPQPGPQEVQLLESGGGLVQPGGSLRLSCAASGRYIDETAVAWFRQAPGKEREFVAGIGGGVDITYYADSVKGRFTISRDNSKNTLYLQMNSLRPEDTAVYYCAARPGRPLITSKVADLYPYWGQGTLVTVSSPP", "parameter-measured": "koff", "reading": "0.0099 s⁻¹"}
{"binder": "RLN Analog 7 (other, Single-chain fusion: VHH - (G4Q)5 L1 - RLN2 B chain (desB1) - L2 - RLN2 A chain) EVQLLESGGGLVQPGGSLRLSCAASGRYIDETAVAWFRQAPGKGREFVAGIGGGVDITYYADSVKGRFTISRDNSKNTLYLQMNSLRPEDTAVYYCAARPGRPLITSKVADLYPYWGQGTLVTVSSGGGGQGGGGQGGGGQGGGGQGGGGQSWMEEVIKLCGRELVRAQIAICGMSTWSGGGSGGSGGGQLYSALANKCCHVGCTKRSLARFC", "parameter-measured": "koff", "reading": "0.0054 s⁻¹"}
{"binder": "RLN Analog 1 (other) EVQLLESGGGLVQPGGSLRLSCAASGRYIDETAVAWFRQAPGKEREFVAGIGGGVDITYYADSVKGRFTISRDNSKNTLYLQMNSLRPEDTAVYYCAARPGRPLITSKVADLYPYWGQGTLVTVSSGGGGQGGGGQGGGGQGGGGQGGGGQQLYSALANKCCHVGCTKRSLARFCGGGSGGSGGGSWMEEVIKLCGRELVRAQIAICGMSTWS", "parameter-measured": "koff", "reading": "0.0055 s⁻¹"}
{"binder": "RLN Analog 2 (other, Single-chain fusion: VHH - (PGPA)8 L1 - RLN2 A chain - L2 - RLN2 B chain (desB1)) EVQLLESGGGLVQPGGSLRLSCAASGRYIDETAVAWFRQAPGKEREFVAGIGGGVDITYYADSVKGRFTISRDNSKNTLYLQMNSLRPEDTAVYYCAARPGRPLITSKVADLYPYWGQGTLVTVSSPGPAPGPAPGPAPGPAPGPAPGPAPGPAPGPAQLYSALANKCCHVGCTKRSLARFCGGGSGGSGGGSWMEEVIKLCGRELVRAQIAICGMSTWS", "parameter-measured": "koff", "reading": "0.0056 s⁻¹"}
{"binder": "RLN Analog 4 (other, Single-chain fusion: VHH - (PGPQ)8 L1 - RLN2 B chain (desB1) - L2 - RLN2 A chain) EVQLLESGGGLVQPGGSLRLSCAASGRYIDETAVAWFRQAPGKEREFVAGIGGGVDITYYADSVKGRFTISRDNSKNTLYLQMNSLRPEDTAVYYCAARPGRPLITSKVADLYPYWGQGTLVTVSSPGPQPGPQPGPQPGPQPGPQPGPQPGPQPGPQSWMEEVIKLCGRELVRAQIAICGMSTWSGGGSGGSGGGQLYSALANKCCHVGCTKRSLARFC", "parameter-measured": "koff", "reading": "0.0053 s⁻¹"}
{"binder": "RLN Analog 11 (other, Single-chain fusion: VHH - (G4Q)5 L1 - RLN2 B chain (desB1) - L2 of thirteen residues - RLN2 A chain (desA1-4)) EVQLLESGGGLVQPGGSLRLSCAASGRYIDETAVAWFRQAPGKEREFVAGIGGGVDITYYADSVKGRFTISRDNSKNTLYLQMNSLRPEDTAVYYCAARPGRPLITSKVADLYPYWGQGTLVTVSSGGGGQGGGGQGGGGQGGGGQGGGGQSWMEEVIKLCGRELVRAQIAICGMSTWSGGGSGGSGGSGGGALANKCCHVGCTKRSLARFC", "parameter-measured": "koff", "reading": "0.0062 s⁻¹"}
{"binder": "RLN Analog 9 (other, Single-chain fusion: RLN2 B chain (desB1) - L2 - RLN2 A chain - (G4Q)5 L1 - VHH (C-terminal)) SWMEEVIKLCGRELVRAQIAICGMSTWSGGGSGGSGGGQLYSALANKCCHVGCTKRSLARFCGGGGQGGGGQGGGGQGGGGQGGGGQEVQLLESGGGLVQPGGSLRLSCAASGRYIDETAVAWFRQAPGKGREFVAGIGGGVDITYYADSVKGRFTISRDNSKNTLYLQMNSLRPEDTAVYYCAARPGRPLITSKVADLYPYWGQGTLVTVSSPP", "parameter-measured": "koff", "reading": "0.012 s⁻¹"}

Enquiry: Recorded koff for RLN Analog 13 (other, Single-chain fusion: VHH - (G4Q)5 L1 - RLN2 A chain (desA1-4) - L2 - RLN2 B chain (desB1)) EVQLLESGGGLVQPGGSLRLSCAASGRYIDETAVAWFRQAPGKGREFVAGIGGGVDITYYADSVKGRFTISRDNSKNTLYLQMNSLRPEDTAVYYCAARPGRPLITSKVADLYPYWGQGTLVTVSSGGGGQGGGGQGGGGQGGGGQGGGGQALANKCCHVGCTKRSLARFCGGGSGGSGGGSWMEEVIKLCGRELVRAQIAICGMSTWS , please?
Return: 0.006 s⁻¹

Enquiry: Also RLN Analog 5 (other, Single-chain fusion: RLN2 B chain (desB1) - L2 - RLN2 A chain - (G4Q)5 L1 - VHH (C-terminal)) SWMEEVIKLCGRELVRAQIAICGMSTWSGGGSGGSGGGQLYSALANKCCHVGCTKRSLARFCGGGGQGGGGQGGGGQGGGGQGGGGQEVQLLESGGGLVQPGGSLRLSCAASGRYIDETAVAWFRQAPGKEREFVAGIGGGVDITYYADSVKGRFTISRDNSKNTLYLQMNSLRPEDTAVYYCAARPGRPLITSKVADLYPYWGQGTLVTVSSPP , if possible.
Return: 0.013 s⁻¹
